Just for reference, the nanobody polyreactivity screen of Harvey et al. (2022) is where these values come from.

# methodDescription: yeast display, Sf9 membrane polyspecificity reagent, FACS + sequencing; frameworks hold sequencing errors
experimentalReadout: polyreactivity (PSR sort gate)

orderedResidues	polyreactivity (PSR sort gate)
QVQLVESGGGLVQAGGSLRLSCAASGRIFRRYAMGWYRQAPGTERELVAAITASGGITYYADSVKGRFTISRDNAKNTVYLQMNSLKPEDTAVYYCAARGSSGYDYWGQGTQVTVSS	high polyreactivity
QVQLVESGGGLVQAGGSLRLSCAASGSIFDFSAMGWYRQAPGKERELVAAISGSGGSTYYADSVKGRFTISRDNAKNTVYLQMNSLKPEDTAVYYCSYYYWGQGTQVTVSS	low polyreactivity
QVQLVESGGGLVQAGGSLRLSCAASGSTFRTNVMGWYRQAPGKERELVAAITKRGSITYYADSVKGRFTISRDNAKNTVYLQMNSLKPEDTAVYYCAARKVAVRGYGYWGQGTQVTVSS	high polyreactivity
QVQLVESGGGLVQAGGSLRLSCAASGIIFVGYAMGWYRQAPGKERELVAGINCGGSTNYADSVKGRFTISRDNAKNTVYFQMNSLKPEDTAVYYCAAYPFDYYGYDYWGLGTQVTVSS	low polyreactivity
QVQLVESGGGVVQAGGSLRLSCAASGFTFGLYAMGWYRQAPGKERELVAVISSSGGSTYYADSVKGRFTISRDNAKNTVYLQMNSLKPEDTAVYYCAAEWHDYKFDVTYDYWGQGTQVTVSS	low polyreactivity
QVQLVESGGGLVQAGGSLRLSCAASGITFSNYAMGWYRQAPGKERELVAAITLSGGRTYYADSVKGRFTISRDNAKNTVYLQMNSLKPEDTAVYYCAAGRTRRPLGGTTKYYYWGQGTQVTVSS	high polyreactivity

Output measured polyreactivity (PSR sort gate) for this item: `QVQLVESGGGLVQAGGSLRLSCAASGSIFQVYAMGWYRQAPGKERELVAAISGGGSSTYYADSVKGRFTISRDNAKNTVYLQMNSLKPEDTAVYYCAAAYSWYDNNRYDYWGQGTQVTVSS` low polyreactivity

Please give the documented polyreactivity (PSR sort gate) of `QVQLVESGGGLVQAGGSLRLSCAASGRTFGYNAMGWYRQAPGKERELVAAISRGDSTNYADSVKGRFTISRDNAKNTVYLQMNSLKPEDTAVYYCAAAFPRYRSRAIRVDYWGQGTQVTVSS` high polyreactivity

Identify measured polyreactivity (PSR sort gate) corresponding to `QVQLVESGGGLVQAGGSLRLSCAASGFIFYSNAMGWYRQAPGKARELVAAISWGGGRTYYADSVKGRFTISRDNAKNTVYLQMNSLKPEDTAVYYCAADTIVGNGIKFDYWGQGTQVTVSS` high polyreactivity

Return reported polyreactivity (PSR sort gate). Input sequence: `QVQLVESGGGLVQAGGSLRLSCAASGSIFSYYAMGWSRQAPGKERELVAAISRSGTSTYYADSVKGRFTISRDNAKNTVSLQMNSLKPEVNAVDYCNARWGFSRHRLMGYWGQGTQVSVSS` high polyreactivity

Please list polyreactivity (PSR sort gate) recorded for the sequence `QVQLVESGGGLVQAGGSLRLSCAASGSIFYAYAMGWYRQAPGKERQLVAAIRSSDSRTYYADSVKGRFTISRDNAKNTVYLQMNSLKPEDTGVYYCDADGSRKVKFDYWGQGTQVTVSS` high polyreactivity
